Numbers sourced from patent US9382204B2.

System: STAT3
ASSAY_METHOD_TEXT: STAT3-dependent luciferase reporter assay in MDA-MB-231-STAT3 stable cells
Assay type: cell-based, human
TEST_CONTEXT: 20 μM, experiment 3, relative to DMSO
REPORTED_ENDPOINT: Rel. luciferase activity (%) 3
Numbers only, in %.

The examples below pair each entry with its known result.
O=C1C(=Cc2ccc(Cl)cc2)C=C(c2ccccc2)N1c1ccccc1    60.1
O=C1C(=Cc2ccc(-c3ccc([N+](=O)[O-])cc3)o2)C=C(c2ccccc2)N1c1cccc(Cl)c1    103.7
COc1ccc(C=C2C=C(c3ccccc3)N(c3cccc4ccccc34)C2=O)cc1    56.6
COc1ccc(C=C2C=C(c3ccccc3)N(c3ccc4ccccc4c3)C2=O)cc1    76.2
CC(=O)Nc1ccc(N2C(=O)C(=Cc3ccc(Cl)cc3)C=C2c2ccccc2)cc1    13.2
COC(=O)c1cccc(N2C(=O)C(=Cc3ccc(OC)cc3)C=C2c2ccccc2)c1    153.6
COc1ccc(C=C2C=C(c3ccccc3)N(c3ccccc3O)C2=O)cc1    103.4

// next item, Rel. luciferase activity (%) 3 requested
Task: Tell me the measured Rel. luciferase activity (%) 3 of COc1ccc(C=C2C=C(c3ccccc3)N(c3ccc(F)cc3)C2=O)cc1 , please.
Output: 47.4
